- assayName: MTS/PMS cell viability assay
- Type: cell-based
- testSettings: human, HepG2 hepatocytes, 1 h exposure, read-out: Cytotoxicity HepG2 EC50 ± SD
metricName: EC50 at 1 h

{"smilesRepresentation": "NCCCC[C@H](NC(=O)CCN(Cc1ccccc1)C(=O)[C@H](CCCCN)NC(=O)CCN(Cc1ccccc1)C(=O)[C@H](CCCCN)NC(=O)CCN(Cc1ccccc1)C(=O)[C@H](CCCCN)NC(=O)CCN(Cc1ccccc1)C(=O)[C@H](CCCCN)NC(=O)CCN(Cc1ccccc1)C(=O)[C@H](CCCCN)NC(=O)CCN(Cc1ccccc1)C(=O)[C@H](CCCCN)NC(=O)CCN(Cc1ccccc1)C(=O)[C@@H](N)CCCCN)C(=O)N(CCC(N)=O)Cc1ccccc1", "result": "124 µM"}
{"smilesRepresentation": "CC(=O)N[C@@H](CCCCN)C(=O)N(CCC(=O)N[C@@H](CCCCN)C(=O)N(CCC(=O)N[C@@H](CCCCN)C(=O)N(CCC(=O)N[C@@H](CCCCN)C(=O)N(CCC(=O)N[C@@H](CCCCN)C(=O)N(CCC(=O)N[C@@H](CCCCN)C(=O)N(CCC(=O)N[C@@H](CCCCN)C(=O)N(CCC(=O)N[C@@H](CCCCN)C(=O)N(CCC(N)=O)Cc1ccccc1)Cc1ccccc1)Cc1ccccc1)Cc1ccccc1)Cc1ccccc1)Cc1ccccc1)Cc1ccccc1)Cc1ccccc1", "result": "121 µM"}
{"smilesRepresentation": "CC(=O)N[C@@H](CCCCN)C(=O)N(CCC(=O)N[C@@H](CCCCN)C(=O)N(CCC(=O)N[C@@H](CCCCN)C(=O)N(CCC(=O)N[C@@H](CCCCN)C(=O)N(CCC(=O)N[C@@H](CCCCN)C(=O)N(CCC(=O)N[C@@H](CCCCN)C(=O)N(CCC(N)=O)Cc1ccccc1)Cc1ccccc1)Cc1ccccc1)Cc1ccccc1)Cc1ccccc1)Cc1ccccc1", "result": "234 µM"}

====

- Test system: E. coli ST131
- testSettings: checkerboard

{"smilesRepresentation": "C[C@@H](c1ccccc1)N(CCC(N)=O)C(=O)[C@H](CCCCNC(=N)N)NC(=O)CCN(C(=O)[C@H](CCCCN)NC(=O)CCN(C(=O)[C@H](CCCCNC(=N)N)NC(=O)CCN(C(=O)[C@H](CCCCN)NC(=O)CCN(C(=O)[C@H](CCCCNC(=N)N)NC(=O)CCN(C(=O)[C@H](CCCCN)NC(=O)CNCCCNCCCCNCCCN)[C@@H](C)c1ccccc1)[C@@H](C)c1ccccc1)[C@@H](C)c1ccccc1)[C@@H](C)c1ccccc1)[C@@H](C)c1ccccc1", "Peptidomimetic MIC alone [µM]": 1}
{"smilesRepresentation": "COCCOCCOCC(=O)N[C@@H](CCCCN)C(=O)N(CCC(=O)N[C@@H](CCCCNC(=N)N)C(=O)N(CCC(=O)N[C@@H](CCCCN)C(=O)N(CCC(=O)N[C@@H](CCCCNC(=N)N)C(=O)N(CCC(=O)N[C@@H](CCCCN)C(=O)N(CCC(=O)N[C@@H](CCCCNC(=N)N)C(=O)N(CCC(N)=O)[C@@H](C)c1ccccc1)[C@@H](C)c1ccccc1)[C@@H](C)c1ccccc1)[C@@H](C)c1ccccc1)[C@@H](C)c1ccccc1)[C@@H](C)c1ccccc1", "Peptidomimetic MIC alone [µM]": 2}
{"smilesRepresentation": "NCCCC[C@H](NC(=O)CCN(Cc1ccccc1)C(=O)[C@H](CCCCN)NC(=O)CCN(Cc1ccccc1)C(=O)[C@H](CCCCN)NC(=O)CCN(Cc1ccccc1)C(=O)[C@H](CCCCN)NC(=O)CCN(Cc1ccccc1)C(=O)[C@H](CCCCN)NC(=O)CCN(Cc1ccccc1)C(=O)[C@H](CCCCN)NC(=O)CCN(Cc1ccccc1)C(=O)[C@H](CCCCN)NC(=O)CCN(Cc1ccccc1)C(=O)[C@@H](N)CCCCN)C(=O)N(CCC(N)=O)Cc1ccccc1", "Peptidomimetic MIC alone [µM]": 2}
{"smilesRepresentation": "C[C@@H](c1ccccc1)N(CCC(N)=O)C(=O)[C@H](CCCCNC(=N)N)NC(=O)CCN(C(=O)[C@H](CCCCN)NC(=O)CCN(C(=O)[C@H](CCCCNC(=N)N)NC(=O)CCN(C(=O)[C@H](CCCCN)NC(=O)CCN(C(=O)[C@H](CCCCNC(=N)N)NC(=O)CCN(C(=O)[C@H](CCCCN)NC(=O)CNCCN)[C@@H](C)c1ccccc1)[C@@H](C)c1ccccc1)[C@@H](C)c1ccccc1)[C@@H](C)c1ccccc1)[C@@H](C)c1ccccc1", "Peptidomimetic MIC alone [µM]": 2}
{"smilesRepresentation": "CC(=O)N[C@@H](CCCCN)C(=O)N(CCC(=O)N[C@@H](CCCCN)C(=O)N(CCC(=O)N[C@@H](CCCCN)C(=O)N(CCC(=O)N[C@@H](CCCCN)C(=O)N(CCC(=O)N[C@@H](CCCCN)C(=O)N(CCC(=O)N[C@@H](CCCCN)C(=O)N(CCC(N)=O)Cc1ccccc1)Cc1ccccc1)Cc1ccccc1)Cc1ccccc1)Cc1ccccc1)Cc1ccccc1", "Peptidomimetic MIC alone [µM]": 4}
